# study_target: Adenosine kinase (Homo sapiens, UniProt P55263)
# Sequence (P55263 2-362 limits assumed): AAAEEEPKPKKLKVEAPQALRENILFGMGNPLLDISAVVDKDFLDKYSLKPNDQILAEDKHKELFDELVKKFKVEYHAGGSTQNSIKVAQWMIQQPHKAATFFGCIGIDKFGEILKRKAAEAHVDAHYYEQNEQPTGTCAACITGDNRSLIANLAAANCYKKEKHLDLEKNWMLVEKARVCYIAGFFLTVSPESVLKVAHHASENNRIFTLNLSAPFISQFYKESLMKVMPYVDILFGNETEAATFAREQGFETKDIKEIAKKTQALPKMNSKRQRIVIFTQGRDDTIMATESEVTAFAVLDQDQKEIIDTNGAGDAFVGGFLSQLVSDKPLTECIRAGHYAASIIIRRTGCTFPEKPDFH
# test_protocol: Activity of human ADK assessed as compound conversion to 5'-phosphate form incubated at 37 degC for 20 mins by HPLC method
# Parameters: concentration or dose not given beside the values
Tick yes (1) if Activity is 60% or greater. Tick no (0) if Activity is less than 60%.

Has `OC[C@H]1O[C@@H](n2cc(F)c3c(-c4c[nH]cn4)ncnc32)[C@H](O)[C@@H]1O` a recorded Activity greater than or equal to 60%?
no (0)

Has `OC[C@H]1O[C@@H](n2cc(Cl)c3c(-c4ccsc4)ncnc32)[C@H](O)[C@@H]1O` a recorded Activity greater than or equal to 60%?
yes (1)

Has `OC[C@H]1O[C@@H](n2cc(F)c3c(-c4ccsc4)ncnc32)[C@H](O)[C@@H]1O` a recorded Activity greater than or equal to 60%?
no (0)

Has `OC[C@H]1O[C@@H](n2ccc3c(-c4ccc(F)cc4)ncnc32)[C@H](O)[C@@H]1O` a recorded Activity greater than or equal to 60%?
no (0)

Has `OC[C@H]1O[C@@H](n2ccc3c(-c4ccsc4)ncnc32)[C@H](O)[C@@H]1O` a recorded Activity greater than or equal to 60%?
no (0)

Has `OCc1ncnc2c1ccn2[C@@H]1O[C@H](CO)[C@@H](O)[C@H]1O` a recorded Activity greater than or equal to 60%?
no (0)

Has `OC[C@H]1O[C@@H](n2cc(F)c3c(-c4ccc[nH]4)ncnc32)[C@H](O)[C@@H]1O` a recorded Activity greater than or equal to 60%?
yes (1)

Has `OC[C@H]1O[C@@H](n2ccc3c(-c4cc[nH]c4)ncnc32)[C@H](O)[C@@H]1O` a recorded Activity greater than or equal to 60%?
yes (1)

---

# test_protocol: Cytotoxicity against human BJ cells after 72 hrs by MTT assay
# Format: cell-based
Decide using CC50 at 72 h alone. Strictly below 1 µM: 1. Equal to or above 1 µM: -1.

Field: below-cutoff. Rule: recorded CC50 at 72 h strictly less than 1 µM. Subject: `OC[C@H]1O[C@@H](n2cc(F)c3c(-c4nccs4)ncnc32)[C@H](O)[C@@H]1O`
1

Field: below-cutoff. Rule: recorded CC50 at 72 h strictly less than 1 µM. Subject: `OC[C@H]1O[C@@H](n2ccc3c(-c4cc5ccccc5s4)ncnc32)[C@H](O)[C@@H]1O`
-1

Field: below-cutoff. Rule: recorded CC50 at 72 h strictly less than 1 µM. Subject: `OC[C@H]1O[C@@H](n2ccc3c(-c4ccc[se]4)ncnc32)[C@H](O)[C@@H]1O`
-1

Field: below-cutoff. Rule: recorded CC50 at 72 h strictly less than 1 µM. Subject: `Cc1ncnc2c1ccn2[C@@H]1O[C@H](CO)[C@@H](O)[C@H]1O`
1

Field: below-cutoff. Rule: recorded CC50 at 72 h strictly less than 1 µM. Subject: `OC[C@H]1O[C@@H](n2ccc3c(-c4cccc5c4sc4ccccc45)ncnc32)[C@H](O)[C@@H]1O`
-1

Field: below-cutoff. Rule: recorded CC50 at 72 h strictly less than 1 µM. Subject: `OC[C@H]1O[C@@H](n2ccc3c(-c4cc5ccccc5o4)ncnc32)[C@H](O)[C@@H]1O`
-1

Field: below-cutoff. Rule: recorded CC50 at 72 h strictly less than 1 µM. Subject: `OC[C@H]1O[C@@H](n2cc(F)c3c(-c4ccco4)ncnc32)[C@H](O)[C@@H]1O`
1

Field: below-cutoff. Rule: recorded CC50 at 72 h strictly less than 1 µM. Subject: `OC[C@H]1O[C@@H](n2ccc3c(-c4nccs4)ncnc32)[C@H](O)[C@@H]1O`
1

Field: below-cutoff. Rule: recorded CC50 at 72 h strictly less than 1 µM. Subject: `OC[C@H]1O[C@@H](n2cc(Cl)c3c(-c4ccc(F)cc4)ncnc32)[C@H](O)[C@@H]1O`
-1

Field: below-cutoff. Rule: recorded CC50 at 72 h strictly less than 1 µM. Subject: `OC[C@H]1O[C@@H](n2ccc3c(Cc4ccccc4)ncnc32)[C@H](O)[C@@H]1O`
-1

Field: below-cutoff. Rule: recorded CC50 at 72 h strictly less than 1 µM. Subject: `OC[C@H]1O[C@@H](n2ccc3c(-c4cccc5c4oc4ccccc45)ncnc32)[C@H](O)[C@@H]1O`
-1

Field: below-cutoff. Rule: recorded CC50 at 72 h strictly less than 1 µM. Subject: `OC[C@H]1O[C@@H](n2cc(Cl)c3c(-c4ccsc4)ncnc32)[C@H](O)[C@@H]1O`
-1

Field: below-cutoff. Rule: recorded CC50 at 72 h strictly less than 1 µM. Subject: `CCCCCCCCCCCCCCCCCCOP(=O)(O)OC[C@H]1O[C@@H](n2ccc3c(-c4ccco4)ncnc32)[C@H](O)[C@@H]1O`
-1

Field: below-cutoff. Rule: recorded CC50 at 72 h strictly less than 1 µM. Subject: `OC[C@H]1O[C@@H](n2cc(Cl)c3c(-c4ccccc4)ncnc32)[C@H](O)[C@@H]1O`
-1

Field: below-cutoff. Rule: recorded CC50 at 72 h strictly less than 1 µM. Subject: `OC[C@H]1O[C@@H](n2ccc3c(-c4c[nH]cn4)ncnc32)[C@H](O)[C@@H]1O`
1

Field: below-cutoff. Rule: recorded CC50 at 72 h strictly less than 1 µM. Subject: `OC[C@H]1O[C@@H](n2ccc3c(-c4ccco4)ncnc32)[C@H](O)[C@@H]1O`
1

Field: below-cutoff. Rule: recorded CC50 at 72 h strictly less than 1 µM. Subject: `OC[C@H]1O[C@@H](n2ccc3c(-c4ccsc4)ncnc32)[C@H](O)[C@@H]1O`
-1

Field: below-cutoff. Rule: recorded CC50 at 72 h strictly less than 1 µM. Subject: `OC[C@H]1O[C@@H](n2cc(Cl)c3c(-c4cccs4)ncnc32)[C@H](O)[C@@H]1O`
-1

Field: below-cutoff. Rule: recorded CC50 at 72 h strictly less than 1 µM. Subject: `OC[C@H]1O[C@@H](n2cc(F)c3c(-c4ccccc4)ncnc32)[C@H](O)[C@@H]1O`
-1

Field: below-cutoff. Rule: recorded CC50 at 72 h strictly less than 1 µM. Subject: `CCCCCCCCCCCCCCCCCCOP(=O)(O)OC[C@H]1O[C@@H](n2ccc3c(-c4ccoc4)ncnc32)[C@H](O)[C@@H]1O`
-1

Field: below-cutoff. Rule: recorded CC50 at 72 h strictly less than 1 µM. Subject: `OC[C@H]1O[C@@H](n2ccc3c(-c4ccn[nH]4)ncnc32)[C@H](O)[C@@H]1O`
-1

Field: below-cutoff. Rule: recorded CC50 at 72 h strictly less than 1 µM. Subject: `OC[C@H]1O[C@@H](n2ccc3c(-c4ccoc4)ncnc32)[C@H](O)[C@@H]1O`
-1

Field: below-cutoff. Rule: recorded CC50 at 72 h strictly less than 1 µM. Subject: `OC[C@H]1O[C@@H](n2cc(Cl)c3c(-c4ccoc4)ncnc32)[C@H](O)[C@@H]1O`
-1

Field: below-cutoff. Rule: recorded CC50 at 72 h strictly less than 1 µM. Subject: `OC[C@H]1O[C@@H](n2ccc3c(-c4ccccn4)ncnc32)[C@H](O)[C@@H]1O`
-1

Field: below-cutoff. Rule: recorded CC50 at 72 h strictly less than 1 µM. Subject: `OC[C@H]1O[C@@H](n2ccc3c(-c4ccc[nH]4)ncnc32)[C@H](O)[C@@H]1O`
-1

Field: below-cutoff. Rule: recorded CC50 at 72 h strictly less than 1 µM. Subject: `OC[C@H]1O[C@@H](n2cc(F)c3c(-c4cccs4)ncnc32)[C@H](O)[C@@H]1O`
1

Field: below-cutoff. Rule: recorded CC50 at 72 h strictly less than 1 µM. Subject: `CCCCCCCCCCCCCCCCCCOP(=O)(O)OC[C@H]1O[C@@H](n2ccc3c(-c4ccsc4)ncnc32)[C@H](O)[C@@H]1O`
-1

Field: below-cutoff. Rule: recorded CC50 at 72 h strictly less than 1 µM. Subject: `CCCCCCCCCCCCCCCCCCOP(=O)(O)OC[C@H]1O[C@@H](n2ccc3c(-c4cc5ccccc5o4)ncnc32)[C@H](O)[C@@H]1O`
-1
